experiment: qHTS for Inhibitors of human tyrosyl-DNA phosphodiesterase 1 (TDP1): qHTS in cells in absence of CPT; conditions: DT40 Tdp1-/- hTDP1 cells, no CPT, ATP luminescence, 48 h; also: nearly all actives have a fitted effect of over 55% in size
In all, about 420,000 compounds went through this assay and about 64,000 (15%) were called active. Not shown: some 27% with an inconclusive outcome. Calls follow the shape of the dose curve; as a rule, active = well fitted inhibition curve with a large enough effect; inconclusive = small, poorly fitted or top-dose-only effect; inactive = flat fitted curve, though single readings scatter. Only a sample is shown.
Outcomes: true (1) = active, false (0) = inactive

# compound, qualitative.label
data = [
    ("CC1=C(C(=O)N(C)C)C(c2ccccc2OC(F)F)NC(=O)N1 (stereo not drawn)", "false (0)"),
    ("Cc1ccc(S(=O)(=O)/N=C(/Nc2ccccn2)c2ccc(Cl)cc2)cc1", "false (0)"),
    ("Cc1cc(/C=C2/SC(=O)N(CC(=O)N3CCCC3)C2=O)c(C)n1C", "false (0)"),
    ("CC(C)(C)C(=O)c1c(N)[nH]c(C(=O)c2ccccc2)c1-c1ccc(F)cc1", "false (0)"),
    ("O=C1CN(C(=O)COc2c(Cl)cccc2Cl)c2ccccc2N1", "false (0)"),
    ("Cc1ccc(OCC(=O)NNC(=S)NCc2ccccc2)cc1", "false (0)"),
    ("Nc1nc2ncccn2c1-c1ccccc1", "false (0)"),
    ("Cc1cccc(NC(=O)C2CCN(C(=O)NC3CCCCC3)CC2)c1", "false (0)"),
    ("O=C(N/N=C/c1cccc(OC(=O)c2ccc([N+](=O)[O-])cc2)c1)c1cccnc1", "false (0)"),
    ("O=C(O)C(NS(=O)(=O)c1cccc2nsnc12)c1ccccc1 (stereo not drawn)", "false (0)"),
    ("O=[N+]([O-])c1ccc(O)c(/C=N/Nc2ccccc2[N+](=O)[O-])c1", "true (1)"),
    ("COc1cccc(C(c2c(O)cc(C)n(Cc3ccco3)c2=O)N2CCN(c3ccccc3)CC2)c1 (stereo not drawn)", "false (0)"),
    ("Cc1cccc(NC(=S)N2CCC(C(=O)c3ccc(F)cc3)CC2)c1", "true (1)"),
    ("CN(CC(=O)NC1CCCCC1)S(=O)(=O)c1ccc(Br)s1", "false (0)"),
    ("CC(=O)NC(c1cccc(F)c1)c1nc(-c2cccc(F)c2)cs1 (stereo not drawn)", "false (0)"),
    ("Cc1cc(C(=O)COC(=O)c2cccs2)c(C)n1-c1c(C)n(C)n(-c2ccccc2)c1=O", "false (0)"),
    ("COc1cc(NC(=S)NCc2ccco2)c(OC)cc1Cl", "false (0)"),
    ("CCN(CC)C(=O)CSc1nc2ccsc2c(=O)n1Cc1ccccc1Cl", "true (1)"),
    ("COc1ccc(CNC(=O)C(NS(=O)(=O)c2cccc3nsnc23)C(C)C)cc1 (stereo not drawn)", "false (0)"),
    ("CCCCN(CC)CCCNC(=O)c1ccc(CSc2nc3ccncc3[nH]2)cc1", "false (0)"),
    ("CCOC(=O)c1cccc(NC(=O)C(Cc2ccccc2)NS(=O)(=O)c2cccc3nsnc23)c1 (stereo not drawn)", "true (1)"),
    ("O=C(O)c1[nH]c2ccccc2c1C(c1cccc(O)c1)c1c(C(=O)O)[nH]c2ccccc12", "false (0)"),
    ("O=c1ccn([C@@H]2O[C@H](COP(=O)(O)OP(=O)(O)OP(=O)(O)O)[C@@H](O)[C@H]2O)c(=O)[nH]1", "false (0)"),
    ("CN(CCO)S(=O)(=O)c1ccc2c(c1)C(=O)c1cc(S(=O)(=O)N(C)CCO)ccc1-2", "false (0)"),
    ("COCCCN1C(=O)C(=O)/C(=C(/O)c2ccc3c(c2)CC(C)O3)C1c1cccnc1 (stereo not drawn)", "false (0)"),
    ("COCCCN(C(=S)Nc1c(C)cc(C)cc1C)C(C)c1ccncc1 (stereo not drawn)", "false (0)"),
    ("N#Cc1c(N)sc2c1CCN(C(=O)OCc1ccccc1)C2", "false (0)"),
    ("CC(OC(=O)c1ccc(-n2cnnn2)cc1)C(=O)NCc1ccccc1 (stereo not drawn)", "false (0)"),
    ("CC(=O)Nc1nc(N(C)C)nc(N(C)C)n1", "false (0)"),
    ("Nc1nnnn1/N=C/c1cc([N+](=O)[O-])ccc1O", "false (0)"),
    ("CCOC(=O)n1c(SCC(=O)N(CC)CC)nc2ccccc21", "false (0)"),
    ("CSc1ncnc2c1ncn2CC(=O)C1CCC2C3CCC4=CC(=O)CCC4(C)C3CCC12C (stereo not drawn)", "true (1)"),
    ("COc1ccc(NC(=O)CN(C)C(=O)Cc2coc3cc(C)c(C)cc23)cc1", "false (0)"),
    ("O=S(=O)(/N=C(/Nc1ccccn1)c1ccccc1)c1ccc(Cl)cc1", "false (0)"),
    ("CCOC(=O)N1CCc2c(sc3c2C(=O)NC(c2ccccc2F)N3)C1 (stereo not drawn)", "true (1)"),
    ("CC(=O)c1cccc(NC(=S)N2CCCC2)c1", "false (0)"),
    ("O=C(CSc1ccc(C(F)(F)F)cc1[N+](=O)[O-])NCCOc1ccccc1", "false (0)"),
    ("c1csc(CN2CCN(Cc3cccs3)C2c2cccs2)c1", "false (0)"),
]

Source: PubChem BioAssay AID686978
